Target: ceh-51 (Y80D3A.3) (Caenorhabditis elegans)
Sequence: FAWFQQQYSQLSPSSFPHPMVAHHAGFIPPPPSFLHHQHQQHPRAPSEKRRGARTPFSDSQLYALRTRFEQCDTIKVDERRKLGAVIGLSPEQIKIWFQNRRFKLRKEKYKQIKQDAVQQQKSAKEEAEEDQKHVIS
Examples of sequences with documented binding signal (PBM E-score (-0.5 to 0.5)) follow.
Please reply with the value in numeric form only.

Some sequences with known binding signal (PBM E-score (-0.5 to 0.5)) results, for comparison:
> print(dat)
                                  seqstring                              targetentity  reading
1  TATTAATA (double strand) [8-mer TATTAATA]  ceh-51 (Y80D3A.3) (Caenorhabditis elegans)    0.483
2  GCTATTAA (double strand) [8-mer GCTATTAA]  ceh-51 (Y80D3A.3) (Caenorhabditis elegans)    0.467
3  ATTAATTG (double strand) [8-mer ATTAATTG]  ceh-51 (Y80D3A.3) (Caenorhabditis elegans)    0.472
4  GCAATTAA (double strand) [8-mer GCAATTAA]  ceh-51 (Y80D3A.3) (Caenorhabditis elegans)    0.473
5  TAATTACA (double strand) [8-mer TAATTACA]  ceh-51 (Y80D3A.3) (Caenorhabditis elegans)    0.467
6  GCACTTAA (double strand) [8-mer GCACTTAA]  ceh-51 (Y80D3A.3) (Caenorhabditis elegans)    0.469
7  ATTAATTA (double strand) [8-mer ATTAATTA]  ceh-51 (Y80D3A.3) (Caenorhabditis elegans)    0.474
8  ATTAATGA (double strand) [8-mer ATTAATGA]  ceh-51 (Y80D3A.3) (Caenorhabditis elegans)    0.469

Below: the item to evaluate.
INPUT: Give recorded binding signal (PBM E-score (-0.5 to 0.5)) with ceh-51 (Y80D3A.3) (Caenorhabditis elegans) for the following sequence: ATTAATAA (double strand) [8-mer ATTAATAA]
OUTPUT: 0.474

----------
Molecular target: tbx-43 (Y46E12A.4) (Caenorhabditis elegans)
Sequence: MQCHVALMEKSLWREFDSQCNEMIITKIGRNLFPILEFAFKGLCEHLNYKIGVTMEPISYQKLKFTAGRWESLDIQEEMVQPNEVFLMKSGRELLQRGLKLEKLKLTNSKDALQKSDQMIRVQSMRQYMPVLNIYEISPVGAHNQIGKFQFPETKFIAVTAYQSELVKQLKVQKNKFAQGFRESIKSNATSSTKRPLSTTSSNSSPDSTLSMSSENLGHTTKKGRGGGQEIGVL
measuredMetric: binding signal (PBM E-score (-0.5 to 0.5))
Please reply with the value in numeric form only.

Some sequences with known binding signal (PBM E-score (-0.5 to 0.5)) results, for comparison:
> print(dat)
                                  seqstring  reading
1  AGGTGCGA (double strand) [8-mer AGGTGCGA]     0.48
2  AGGTGTGA (double strand) [8-mer AGGTGTGA]    0.499
3  GTGTGAAC (double strand) [8-mer GTGTGAAC]    0.485
4  ATCACACC (double strand) [8-mer ATCACACC]    0.486

Below: the item to evaluate.
INPUT: Need binding signal (PBM E-score (-0.5 to 0.5)), item GTGTGAAA (double strand) [8-mer GTGTGAAA]
OUTPUT: 0.494

----------
Target: ham-2 (C07A12.1) (Caenorhabditis elegans) (UniProt H2KYH4)
Sequence: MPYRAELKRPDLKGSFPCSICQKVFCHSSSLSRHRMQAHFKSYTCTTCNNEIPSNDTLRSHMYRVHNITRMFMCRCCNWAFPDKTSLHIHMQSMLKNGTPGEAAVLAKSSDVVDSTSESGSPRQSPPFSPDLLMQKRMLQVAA
measuredMetric: binding signal (PBM E-score (-0.5 to 0.5))
Please reply with the value in numeric form only.

Some sequences with known binding signal (PBM E-score (-0.5 to 0.5)) results, for comparison:
> print(dat)
                                  seqstring  reading
1  AGCTAGCT (double strand) [8-mer AGCTAGCT]    0.488
2  TGCTAGCA (double strand) [8-mer TGCTAGCA]     0.48
3  GAAGCTTA (double strand) [8-mer GAAGCTTA]    0.482

INPUT: Need binding signal (PBM E-score (-0.5 to 0.5)), item AAGCTAGC (double strand) [8-mer AAGCTAGC]
OUTPUT: 0.476

INPUT: # repeat for AAAGCTTA (double strand) [8-mer AAAGCTTA]
OUTPUT: 0.481

----------
Biological target: nhr-1 (R09G11.2) (Caenorhabditis elegans)
Sequence: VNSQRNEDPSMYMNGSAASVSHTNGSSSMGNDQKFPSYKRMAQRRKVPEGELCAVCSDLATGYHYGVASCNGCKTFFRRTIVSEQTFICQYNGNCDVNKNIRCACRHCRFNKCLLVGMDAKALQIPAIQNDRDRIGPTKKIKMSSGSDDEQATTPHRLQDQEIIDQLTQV
measuredMetric: binding signal (PBM E-score (-0.5 to 0.5))
Please reply with the value in numeric form only.

> print(dat)
                                  seqstring  reading
1  GTGATCAA (double strand) [8-mer GTGATCAA]    0.472
2  GTGATCAC (double strand) [8-mer GTGATCAC]    0.489
3  AAAGATCA (double strand) [8-mer AAAGATCA]    0.472

INPUT: Need binding signal (PBM E-score (-0.5 to 0.5)), item AGTGATCA (double strand) [8-mer AGTGATCA]
OUTPUT: 0.495

----------
Target: odd-2 (C34H3.2) (Caenorhabditis elegans) (UniProt Q9N5X6)
Sequence (Q9N5X6 74-252): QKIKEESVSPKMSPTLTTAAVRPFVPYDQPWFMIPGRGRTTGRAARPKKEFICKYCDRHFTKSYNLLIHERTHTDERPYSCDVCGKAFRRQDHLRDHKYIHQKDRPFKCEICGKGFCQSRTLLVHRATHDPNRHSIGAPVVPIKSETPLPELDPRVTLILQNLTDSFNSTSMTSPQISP
measuredMetric: binding signal (PBM E-score (-0.5 to 0.5))
Please reply with the value in numeric form only.

> print(dat)
                                  seqstring  reading
1  ACAGTAGC (double strand) [8-mer ACAGTAGC]    0.499
2  ACGGTAGC (double strand) [8-mer ACGGTAGC]    0.498
3  CCAGTAGC (double strand) [8-mer CCAGTAGC]    0.492
4  CAGTAGCG (double strand) [8-mer CAGTAGCG]    0.488
5  CCGGTAGC (double strand) [8-mer CCGGTAGC]    0.496
6  CGGTAGCC (double strand) [8-mer CGGTAGCC]    0.485
7  AGCTACTG (double strand) [8-mer AGCTACTG]    0.492
8  CGCTACCG (double strand) [8-mer CGCTACCG]    0.488

Below: the item to evaluate.
INPUT: Need binding signal (PBM E-score (-0.5 to 0.5)), item AACAGTAG (double strand) [8-mer AACAGTAG]
OUTPUT: 0.492

----------
Examples of sequences with documented binding signal (PBM E-score (-0.5 to 0.5)) follow.
Target: Y61A9LA.9 (Y61A9LA.9) (Caenorhabditis elegans)
Sequence: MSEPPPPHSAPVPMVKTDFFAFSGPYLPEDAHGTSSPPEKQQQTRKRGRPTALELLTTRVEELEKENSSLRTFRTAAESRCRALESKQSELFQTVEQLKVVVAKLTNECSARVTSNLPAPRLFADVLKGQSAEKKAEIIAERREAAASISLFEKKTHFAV
Please reply with the value in numeric form only.

> print(dat)
                                  seqstring  reading
1  AATAATAA (double strand) [8-mer AATAATAA]    0.461

INPUT: Need binding signal (PBM E-score (-0.5 to 0.5)), item ATTTAAAT (double strand) [8-mer ATTTAAAT]
OUTPUT: 0.47

INPUT: # repeat for TAAAATAA (double strand) [8-mer TAAAATAA]
OUTPUT: 0.453

----------
Biological target: mbr-1 (T01C1.2) (Caenorhabditis elegans) (UniProt G5EGQ5)
Sequence: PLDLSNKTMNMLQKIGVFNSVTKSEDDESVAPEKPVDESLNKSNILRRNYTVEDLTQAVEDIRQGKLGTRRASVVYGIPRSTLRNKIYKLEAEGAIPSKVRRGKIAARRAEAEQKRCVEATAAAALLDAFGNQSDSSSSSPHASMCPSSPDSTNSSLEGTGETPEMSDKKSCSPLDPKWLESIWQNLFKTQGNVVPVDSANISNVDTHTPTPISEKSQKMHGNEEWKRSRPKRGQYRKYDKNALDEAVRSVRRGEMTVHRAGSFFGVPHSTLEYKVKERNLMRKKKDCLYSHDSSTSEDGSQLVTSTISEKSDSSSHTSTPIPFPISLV
measuredMetric: binding signal (PBM E-score (-0.5 to 0.5))
Please reply with the value in numeric form only.

Some sequences with known binding signal (PBM E-score (-0.5 to 0.5)) results, for comparison:
> print(dat)
                                  seqstring                              targetentity  reading
1  GGGGCCAA (double strand) [8-mer GGGGCCAA]  mbr-1 (T01C1.2) (Caenorhabditis elegans) (UniProt G5EGQ5)    0.488
2  GGGGGCCA (double strand) [8-mer GGGGGCCA]  mbr-1 (T01C1.2) (Caenorhabditis elegans) (UniProt G5EGQ5)    0.495
3  GCCCCCCA (double strand) [8-mer GCCCCCCA]  mbr-1 (T01C1.2) (Caenorhabditis elegans) (UniProt G5EGQ5)    0.487
4  AAGGGGCC (double strand) [8-mer AAGGGGCC]  mbr-1 (T01C1.2) (Caenorhabditis elegans) (UniProt G5EGQ5)    0.487
5  GGCCCCCC (double strand) [8-mer GGCCCCCC]  mbr-1 (T01C1.2) (Caenorhabditis elegans) (UniProt G5EGQ5)    0.498

INPUT: Need binding signal (PBM E-score (-0.5 to 0.5)), item AGGGGGGC (double strand) [8-mer AGGGGGGC]
OUTPUT: 0.491

INPUT: # repeat for AGGCCCCT (double strand) [8-mer AGGCCCCT]
OUTPUT: 0.491

INPUT: # repeat for AAGGCCCC (double strand) [8-mer AAGGCCCC]
OUTPUT: 0.489
